Origin of the recorded values: patent US20230277612A1

# test: Critical micellar concentration (CMC) by ANS fluorescence
# Format: physicochemical
# condition.notes: Table A7; determined in PBS
Mark true (1) for reported CMC of 100 µM or greater; mark false (0) for anything smaller.

Please indicate if the recorded CMC for CC(=O)OC1C(C)OC(OC2C(C)OC(OC(=O)[C@]34CCC(C)(C)CC3C3=CCC5[C@@]6(C)CC[C@H](OC7OC(C(=O)NCCN8C(=O)C=CC8=O)C(O)C(OC8OCC(O)C(O)C8O)C7OC7OC(CO)C(O)C(O)C7O)[C@@](C)(CO)C6CC[C@@]5(C)[C@]3(C)C[C@H]4O)C(OC3OC(C)C(OC4OCC(O)C(OC5OC(CO)C(O)C(O)C5O)C4O)C(O)C3O)C2O)C(O)C1OC1OCC(O)C(O)C1O (stereo partly shown) meets or exceeds 100 µM.
false (0)

And CC(=O)OC1C(C)OC(OC2C(C)OC(OC(=O)[C@]34CCC(C)(C)CC3C3=CCC5[C@@]6(C)CC[C@H](OC7OC(C(=O)O)C(O)C(OC8OCC(O)C(O)C8O)C7OC7OC(CO)C(O)C(O)C7O)[C@@](C)(/C=N/NC(=O)CCCCCN7C(=O)C[C@H](SCCO)C7=O)C6CC[C@@]5(C)[C@]3(C)C[C@H]4O)C(OC3OC(C)C(OC4OCC(O)C(OC5OC(CO)C(O)C(O)C5O)C4O)C(O)C3O)C2O)C(O)C1OC1OCC(O)C(O)C1O (stereo partly shown) ?
false (0)

New cases:
Please indicate if the recorded CMC for CC1OC(OC2C(C)OC(OC(=O)[C@]34CCC(C)(C)CC3C3=CCC5[C@@]6(C)CC[C@H](OC7OC(C(=O)O)C(O)C(OC8OCC(O)C(O)C8O)C7OC7OC(CO)C(O)C(O)C7O)[C@@](C)(CO)C6CC[C@@]5(C)[C@]3(C)C[C@H]4O)C(OC3OC(C)C(OC4OCC(O)C(OC5OC(CO)C(O)C(O)C5O)C4O)C(O)C3O)C2O)C(O)C(OC2OCC(O)C(O)C2O)C1O (stereo partly shown) meets or exceeds 100 µM.
true (1)

And CC1OC(OC2C(C)OC(OC(=O)[C@]34CCC(C)(C)CC3C3=CCC5[C@@]6(C)CC[C@H](OC7OC(C(=O)NCCN8C(=O)C=CC8=O)C(O)C(OC8OCC(O)C(O)C8O)C7OC7OC(CO)C(O)C(O)C7O)[C@@](C)(CO)C6CC[C@@]5(C)[C@]3(C)C[C@H]4O)C(OC3OC(C)C(OC4OCC(O)C(OC5OC(CO)C(O)C(O)C5O)C4O)C(O)C3O)C2O)C(O)C(OC2OCC(O)C(O)C2O)C1O (stereo partly shown) ?
true (1)

And CC1OC(OC2C(C)OC(OC(=O)[C@]34CCC(C)(C)CC3C3=CCC5[C@@]6(C)CC[C@H](OC7OC(C(=O)NC(C)(CO)CO)C(O)C(OC8OCC(O)C(O)C8O)C7OC7OC(CO)C(O)C(O)C7O)[C@@](C)(CO)C6CC[C@@]5(C)[C@]3(C)C[C@H]4O)C(OC3OC(C)C(OC4OCC(O)C(OC5OC(CO)C(O)C(O)C5O)C4O)C(O)C3O)C2O)C(O)C(OC2OCC(O)C(O)C2O)C1O (stereo partly shown) ?
true (1)

And CC(=O)OC1C(C)OC(OC2C(C)OC(OC(=O)[C@]34CCC(C)(C)CC3C3=CCC5[C@@]6(C)CC[C@H](OC7OC(C(=O)NCCN8C(=O)C=CC8=O)C(O)C(OC8OCC(O)C(O)C8O)C7OC7OC(CO)C(O)C(O)C7O)[C@@](C)(C=O)C6CC[C@@]5(C)[C@]3(C)C[C@H]4O)C(OC3OC(C)C(OC4OCC(O)C(OC5OC(CO)C(O)C(O)C5O)C4O)C(O)C3O)C2O)C(O)C1OC1OCC(O)C(O)C1O (stereo partly shown) ?
false (0)

And CC1OC(OC2C(C)OC(OC(=O)[C@]34CCC(C)(C)CC3C3=CCC5[C@@]6(C)CC[C@H](OC7OC(C(=O)O)C(O)C(OC8OCC(O)C(O)C8O)C7OC7OC(CO)C(O)C(O)C7O)[C@@](C)(C=O)C6CC[C@@]5(C)[C@]3(C)C[C@H]4O)C(OC3OC(C)C(OC4OCC(O)C(OC5OC(CO)C(O)C(O)C5O)C4O)C(O)C3O)C2O)C(O)C(OC2OCC(O)C(O)C2O)C1O (stereo partly shown) ?
true (1)
